- Tested On: HLA-A*02:19
- Procedure Summary: IEDB peptide-MHC binding, purified MHC/direct/fluorescence; filed as Kd, often an IC50 or EC50 that approximates it; bounds were set here for any values at or beyond the usual limits of such assays
- Study Conditions: source organism: Yersinia enterocolitica subsp. enterocolitica 8081
pKd: −log10 of the molar value.
Measured Property: pKd

Lookup: pKd / HLA-A*02:19 / `YIYDGKVNY` ≤ 4.70

====

- Tested On: HLA-B*51:01
- Procedure Summary: IEDB peptide-MHC binding, purified MHC/competitive/fluorescence; filed as Kd, often an IC50 or EC50 that approximates it; bounds were set here for any values at or beyond the usual limits of such assays
- Study Conditions: source organism: Cryptosporidium parvum Iowa II
pKd: −log10 of the molar value.
Measured Property: pKd

// lookup pKd for `VYWENEVSI` ≤ 4.70

====

- Tested On: HLA-A*26:01
- Procedure Summary: IEDB peptide-MHC binding, purified MHC/direct/fluorescence; filed as Kd, often an IC50 or EC50 that approximates it; bounds were set here for any values at or beyond the usual limits of such assays
- Study Conditions: source organism: Influenza A virus (A/chicken/Hebei/nj/2002(H9N2))
pKd: −log10 of the molar value.
Measured Property: pKd

// pKd lookup, key: `CVLEAMAFL` ≤ 4.70

====

- Tested On: HLA-A*11:01
- Procedure Summary: IEDB peptide-MHC binding, purified MHC/competitive/radioactivity; filed as Kd, often an IC50 or EC50 that approximates it; bounds were set here for any values at or beyond the usual limits of such assays
- Study Conditions: source organism: Homo sapiens
Measured Property: Kd (nM)
Note: unit nM is implicit; provide only the numeric part.

Given the entry `ETLTSVFQK` , report its measured Kd. 11

====

- Tested On: HLA-A*69:01
- Procedure Summary: IEDB peptide-MHC binding, purified MHC/direct/fluorescence; filed as Kd, often an IC50 or EC50 that approximates it; bounds were set here for any values at or beyond the usual limits of such assays
- Study Conditions: source organism: Yersinia pestis
Measured Property: pKd
Note on units: pKd is unitless, being -log10 of a concentration expressed in mol/L.

Request body: readout pKd, system HLA-A*69:01, query `GMFIIFIPI` . Return the value. 5.27

====

- Tested On: HLA-B*07:02
- Procedure Summary: IEDB peptide-MHC binding, purified MHC/competitive/radioactivity; filed as Kd, often an IC50 or EC50 that approximates it; bounds were set here for any values at or beyond the usual limits of such assays
- Study Conditions: source organism: Mammarenavirus lassaense
Measured Property: Kd (µM)
Write the value in µM as a bare number.

Using the record for `MPKDGLKVL` , report its Kd. 0.802

Would you kindly share the measured Kd for `CPFLFLTVL` ? 0.0995

====

- Tested On: HLA-A*02:01
- Procedure Summary: IEDB peptide-MHC binding, purified MHC/direct/fluorescence; filed as Kd, often an IC50 or EC50 that approximates it; bounds were set here for any values at or beyond the usual limits of such assays
- Study Conditions: source organism: Lassa virus Josiah
pKd: −log10 of the molar value.
Measured Property: pKd

// map `NHYLCLNCL` to recorded pKd (system: HLA-A*02:01) ≤ 4.70

====

- Tested On: HLA-B*46:01
- Procedure Summary: IEDB peptide-MHC binding, purified MHC/direct/fluorescence; filed as Kd, often an IC50 or EC50 that approximates it; bounds were set here for any values at or beyond the usual limits of such assays
- Study Conditions: source organism: Bacillus cereus H3081.97
pKd: −log10 of the molar value.
Measured Property: pKd

Fill in: pKd of `YSTVRDLFL` is ___ ≤ 4.70
